Target: PRS (prolyl-tRNA synthetase) (Homo sapiens, UniProt P07814)
Construct: the portion corresponding to PRS in cDNA of EPRS was subcloned; made in house
Sequence (P07814 1007-1512 limits assumed): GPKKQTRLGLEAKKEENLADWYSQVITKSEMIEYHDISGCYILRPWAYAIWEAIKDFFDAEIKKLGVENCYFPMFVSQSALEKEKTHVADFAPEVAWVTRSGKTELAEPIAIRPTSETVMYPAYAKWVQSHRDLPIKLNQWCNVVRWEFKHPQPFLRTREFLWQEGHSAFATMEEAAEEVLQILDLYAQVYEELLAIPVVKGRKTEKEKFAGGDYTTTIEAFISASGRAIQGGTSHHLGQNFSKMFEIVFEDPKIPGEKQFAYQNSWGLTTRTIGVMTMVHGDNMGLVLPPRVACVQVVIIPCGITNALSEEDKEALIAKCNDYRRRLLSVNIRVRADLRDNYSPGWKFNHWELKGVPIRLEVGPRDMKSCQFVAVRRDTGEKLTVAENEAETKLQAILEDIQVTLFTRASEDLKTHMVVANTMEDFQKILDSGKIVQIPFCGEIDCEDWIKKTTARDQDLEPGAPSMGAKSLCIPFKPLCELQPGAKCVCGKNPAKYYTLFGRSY
Test: In vitro PRS enzyme activity inhibition experiment ([3H]proline, liquid scintillation)
Format: biochemical
Conditions: purified PRS protein subcloned from EPRS cDNA; 37° C., 5 to 10 minutes; read-out: PRS IC50
Description: In order to confirm the biological activities of the compounds prepared in Examples, % inhibition or IC50 values of PRS enzyme ([…]) activities were calculated. Specifically, the portion corresponding to PRS in cDNA of EPRS was subcloned, and the obtained high-purity PRS protein was purified and used in the experiment. […] The radioactivity was measured using a liquid scintillation counter. […]
pIC50: −log10 of the molar value. Structures can show the parent of a compound that is named as a salt.

compound | systemName | pIC50
O=C(C[C@H]1NCCC[C@@H]1O)Cn1cnc2cnc(Cl)cc21 | PRS (prolyl-tRNA synthetase) (Homo sapiens, UniProt P07814) | 6.30 to 7.00
Cc1c(Cl)ccc2ncn(CC(=O)C[C@H]3NCCC[C@@H]3O)c12 | PRS (prolyl-tRNA synthetase) (Homo sapiens, UniProt P07814) | > 7.00
OC(C[C@H]1NCCC[C@@H]1O)Cn1cnc2ccccc21 (stereo partly drawn) | PRS (prolyl-tRNA synthetase) (Homo sapiens, UniProt P07814) | < 6.30
Cc1c(Br)ccc2c1ncn2CC(O)(C[C@H]1NCCC[C@@H]1O)C(F)(F)F (stereo partly drawn) | PRS (prolyl-tRNA synthetase) (Homo sapiens, UniProt P07814) | < 6.30
OC(C[C@H]1NCCC[C@@H]1O)Cn1cnc2c(Cl)c(Cl)ccc21 (stereo partly drawn) | PRS (prolyl-tRNA synthetase) (Homo sapiens, UniProt P07814) | < 6.30
O=C(C[C@H]1NCCC[C@@H]1O)Cn1cnc2c(Cl)ncnc21 [Example 44, hydrochloride salt] | PRS (prolyl-tRNA synthetase) (Homo sapiens, UniProt P07814) | < 6.30
Cc1cc2ncn(CC(=O)C[C@H]3NCCC[C@@H]3O)c2cc1C | PRS (prolyl-tRNA synthetase) (Homo sapiens, UniProt P07814) | > 7.00
O=C(C[C@H]1NCCC[C@@H]1O)Cn1cnc2cc(F)c(Br)cc21 | PRS (prolyl-tRNA synthetase) (Homo sapiens, UniProt P07814) | > 7.00
Cc1c(Br)cnc2c1ncn2CC(=O)C[C@H]1NCCC[C@@H]1O | PRS (prolyl-tRNA synthetase) (Homo sapiens, UniProt P07814) | > 7.00
O=C(C[C@H]1NCCC[C@@H]1O)Cn1cnc2c(F)c(Br)ccc21 | PRS (prolyl-tRNA synthetase) (Homo sapiens, UniProt P07814) | > 7.00
O=C(C[C@H]1NCCC[C@@H]1O)Cn1cnc2cncc(Br)c21 | PRS (prolyl-tRNA synthetase) (Homo sapiens, UniProt P07814) | > 7.00
NCc1nc2cc(Cl)c(Cl)cc2n1CC(=O)C[C@H]1NCCC[C@@H]1O | PRS (prolyl-tRNA synthetase) (Homo sapiens, UniProt P07814) | < 6.30
Cc1c(Br)ccc2c1ncn2CC(O)C[C@H]1NCCC[C@@H]1O (stereo partly drawn) | PRS (prolyl-tRNA synthetase) (Homo sapiens, UniProt P07814) | > 7.00
O=C(C[C@H]1NCCC[C@@H]1O)Cn1ncc2cc(Cl)cnc21 | PRS (prolyl-tRNA synthetase) (Homo sapiens, UniProt P07814) | < 6.30
Cc1nc2c(F)c(F)ccc2n1CC(=O)C[C@H]1NCCC[C@@H]1O | PRS (prolyl-tRNA synthetase) (Homo sapiens, UniProt P07814) | < 6.30
O=C(C[C@H]1NCCC[C@@H]1O)Cn1cnc2c(C(F)(F)F)c(F)ccc21 | PRS (prolyl-tRNA synthetase) (Homo sapiens, UniProt P07814) | > 7.00
OC(C[C@H]1NCCC[C@@H]1O)Cn1cnc2c(Cl)c(Br)ccc21 (stereo partly drawn) | PRS (prolyl-tRNA synthetase) (Homo sapiens, UniProt P07814) | > 7.00
O=C(C[C@H]1NCCC[C@@H]1O)Cn1cnc2cc(Br)ccc21 | PRS (prolyl-tRNA synthetase) (Homo sapiens, UniProt P07814) | > 7.00
Cc1ccc2c(cnn2CC(=O)C[C@H]2NCCC[C@@H]2O)c1Br | PRS (prolyl-tRNA synthetase) (Homo sapiens, UniProt P07814) | 6.30 to 7.00
O=C(C[C@H]1NCCC[C@@H]1O)Cn1cnc2c(Cl)c(Cl)ccc21 | PRS (prolyl-tRNA synthetase) (Homo sapiens, UniProt P07814) | > 7.00
O=C(C[C@H]1NCCC[C@@H]1O)Cn1c(CO)nc2cc(Br)ccc21 | PRS (prolyl-tRNA synthetase) (Homo sapiens, UniProt P07814) | 6.30 to 7.00
